B1: HDV Ribozyme (parent)
chain: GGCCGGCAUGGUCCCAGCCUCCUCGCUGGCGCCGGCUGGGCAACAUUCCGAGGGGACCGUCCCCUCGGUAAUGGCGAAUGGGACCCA

- Variants of: B1
- test-description: self-cleavage, relative activity (ratio to wild type); higher = more cleavage; co-transcriptional
Label Fulfilled when self-cleavage is at or above 0.2; otherwise label Not fulfilled.

For orientation, consider the following solved cases.
- sequence-variant: "C4G G53U"
  assigned-category: "Fulfilled"
- sequence-variant: "G31U G74C"
  assigned-category: "Fulfilled"

Say whether G76C G80U shows self-cleavage of 0.2 or more.
Fulfilled

Say whether C36U G55A shows self-cleavage of 0.2 or more.
Fulfilled

Say whether C3A G54C shows self-cleavage of 0.2 or more.
Fulfilled

Say whether C13A C57U shows self-cleavage of 0.2 or more.
Not fulfilled

Say whether G6A G17C shows self-cleavage of 0.2 or more.
Not fulfilled

Say whether C7G C14G shows self-cleavage of 0.2 or more.
Not fulfilled

Say whether C26G A70C shows self-cleavage of 0.2 or more.
Fulfilled
